# Target System: FAK (Homo sapiens, UniProt Q05397)
# Construct: homozygous knock-in of a HiBiT tag (Promega Corporation, Madison, WI) to the C-terminus of the FAK gene in its natural genomic locus; endogenous in cells; host or cells: JHH-4-FAK-HiBiT clone d01 (CRISPR-Cas9 knock-in at the endogenous locus)
# Sequence (Q05397 whole entry): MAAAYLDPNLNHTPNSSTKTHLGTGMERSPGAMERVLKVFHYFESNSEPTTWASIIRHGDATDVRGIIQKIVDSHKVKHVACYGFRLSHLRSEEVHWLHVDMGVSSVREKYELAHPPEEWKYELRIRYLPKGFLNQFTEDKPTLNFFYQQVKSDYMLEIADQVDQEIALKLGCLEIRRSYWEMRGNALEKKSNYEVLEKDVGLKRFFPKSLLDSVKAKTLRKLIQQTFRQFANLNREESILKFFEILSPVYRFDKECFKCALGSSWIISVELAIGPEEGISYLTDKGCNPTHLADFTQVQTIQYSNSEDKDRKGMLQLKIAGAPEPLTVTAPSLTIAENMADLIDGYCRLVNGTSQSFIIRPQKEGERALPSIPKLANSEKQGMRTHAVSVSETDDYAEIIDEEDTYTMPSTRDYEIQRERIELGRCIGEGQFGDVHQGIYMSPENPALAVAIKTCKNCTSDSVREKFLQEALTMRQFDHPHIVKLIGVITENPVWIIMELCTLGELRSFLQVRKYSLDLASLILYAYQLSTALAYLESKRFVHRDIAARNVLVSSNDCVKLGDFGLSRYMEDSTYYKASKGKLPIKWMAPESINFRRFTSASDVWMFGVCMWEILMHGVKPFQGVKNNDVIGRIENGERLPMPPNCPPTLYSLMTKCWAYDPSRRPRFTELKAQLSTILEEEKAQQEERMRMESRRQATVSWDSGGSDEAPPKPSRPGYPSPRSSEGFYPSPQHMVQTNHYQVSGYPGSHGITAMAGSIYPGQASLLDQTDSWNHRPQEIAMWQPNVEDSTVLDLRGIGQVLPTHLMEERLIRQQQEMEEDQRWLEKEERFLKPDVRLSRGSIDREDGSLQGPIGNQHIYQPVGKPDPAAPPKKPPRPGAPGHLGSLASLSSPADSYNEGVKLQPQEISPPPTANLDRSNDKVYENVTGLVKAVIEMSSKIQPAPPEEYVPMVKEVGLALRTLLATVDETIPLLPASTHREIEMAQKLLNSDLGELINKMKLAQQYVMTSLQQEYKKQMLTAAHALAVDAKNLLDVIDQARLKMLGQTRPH
# Experiment Notes: FAK-HiBiT Degradation Assay
# Type: cell-based
# Condition Label: lower limit of the four parameter fit (value A); Ymax derived using DMSO control; JHH-4-FAK-HiBiT cells, two hours
Endpoint Label: FAK HiBiT Ymin

I: O=C1CC[C@H](N2Cc3cc(Cn4ncc5c(-c6ncc(C(F)(F)F)cc6Cl)cc(N6CCC(O)C6)nc54)ccc3C2=O)C(=O)N1 (stereo in doubt)
II: CCc1cc2c(-c3ncc(C(F)(F)F)cc3Cl)cc(N3CC(F)C3)nc2n1Cc1ccc2c(c1)CN(C1CCC(=O)NC1=O)C2=O (stereo not shown)
Dear colleague, could you let me know whether I or II has the lower recorded FAK HiBiT Ymin? Thanks. Kindly give the label for the entry you pick.
I

1: O=C1CC[C@H](N2Cc3cc(Cn4ncc5c(-c6ncc(F)cc6Cl)cc(N6CC(F)C6)nc54)cc(F)c3C2=O)C(=O)N1
2: O=C1CC[C@H](N2Cc3cc(Cn4ncc5c(-c6ncc(OC(F)(F)F)cc6Cl)cc(N6CC(F)C6)nc54)ccc3C2=O)C(=O)N1
3: CN(c1cc(-c2ncc(C(F)(F)F)cc2Cl)c2cnn(Cc3ccc4c(c3)CN([C@H]3CCC(=O)NC3=O)C4=O)c2n1)[C@H]1C[C@H](O)C1
Put these in order: smallest FAK HiBiT Ymin first, largest last. Please express your ranking as an ordered list of the labels.
1, 2, 3

1: O=C1CCC(N2Cc3cc(Cn4cnc5c(-c6ncc(F)cc6Cl)cc(N6CC(F)C6)nc54)ccc3C2=O)C(=O)N1 (stereo not shown)
2: Cc1cccnc1-c1cc(N2CC(F)C2)nc2c1cnn2Cc1ccc2c(c1)CN(C1CCC(=O)NC1=O)C2=O (stereo not shown)
3: COc1cc(C2CC2)cnc1-c1cc(N2CC(F)C2)nc2c1cnn2Cc1ccc2c(c1)CN(C1CCC(=O)NC1=O)C2=O (stereo not shown)
4: Cc1cc(C(F)(F)F)cnc1-c1cc(N2CC(F)C2)nc2c1cnn2Cc1ccc2c(c1)CN(C1CCC(=O)NC1=O)C2=O (stereo not shown)
Could you please sort these 4 entries by FAK HiBiT Ymin from high to low? Sort the labels as requested; that list is your answer.
3, 2, 4, 1

a: CCOc1cnc(-c2c(Cl)c(N3CC(F)C3)nc3c2cnn3Cc2ccc3c(c2)CN([C@H]2CCC(=O)NC2=O)C3=O)c(C(F)(F)F)c1
b: N#Cc1ccc(-c2cc(N3CCC3)nc3c2cnn3Cc2cnc3c(c2)CN(C2CCC(=O)NC2=O)C3=O)c(Cl)c1 (stereo not shown)
Input pair: a , b . Output: entry with lower FAK HiBiT Ymin. Pick one and reply with its label.
a

====

# Target System: FAK (Homo sapiens)
# Construct: homozygous knock-in of a HiBiT tag (Promega Corporation, Madison, WI) to the C-terminus of the FAK gene in its natural genomic locus; endogenous in cells; host or cells: JHH-4-FAK-HiBiT clone d01 (CRISPR-Cas9 knock-in at the endogenous locus)
# Experiment Notes: FAK-HiBiT Degradation Assay
# Format: cell-based
# Condition Label: JHH-4-FAK-HiBiT clone d01 cells; two hours incubation; 10-point dose response, 3-fold dilution starting at 1 μM; Nano-Glo HiBiT luminescence; read-out: FAK HiBiT EC50
# Description: To generate JHH-4-FAK-HiBiT cells for the FAK degradation assay, JHH-4 cells (Japanese Collection of Research Biosources Cell Bank, Japan) were transfected with ribonucleoprotein reagents to introduce, by CRISPR-Cas9 editing, the homozygous knock-in of a HiBiT tag (Promega Corporation, Madison, WI) to the C-terminus of the FAK gene in its natural genomic locus. […]
Endpoint Label: DC50 (nM)

[
  {
    "Molecule": "Cc1cc(C(F)(F)F)cnc1-c1cc(N2CC[C@H](O)C2)nc2c1cnn2Cc1ccc2c(c1)CN([C@H]1CCC(=O)NC1=O)C2=O",
    "Target System": "FAK (Homo sapiens)",
    "Endpoint Label": "DC50",
    "Display Unit": "nM",
    "Number": 45.3
  },
  {
    "Molecule": "O=C1CC[C@H](N2Cc3cc(Cn4ncc5c(-c6ncc(F)cc6Cl)cc(N6CC(F)C6)nc54)cc(F)c3C2=O)C(=O)N1",
    "Target System": "FAK (Homo sapiens)",
    "Endpoint Label": "DC50",
    "Display Unit": "nM",
    "Number": 1.24
  },
  {
    "Molecule": "Cc1cc(OC(F)F)cnc1-c1cc(N2CC(F)C2)nc2c1cnn2Cc1ccc2c(c1)CN([C@H]1CCC(=O)NC1=O)C2=O",
    "Target System": "FAK (Homo sapiens)",
    "Endpoint Label": "DC50",
    "Display Unit": "nM",
    "Number": 4.63
  },
  {
    "Molecule": "CN(c1cc(-c2ncc(C(F)(F)F)cc2Cl)c2cnn(Cc3ccc4c(c3)CN([C@H]3CCC(=O)NC3=O)C4=O)c2n1)[C@H]1C[C@H](O)C1",
    "Target System": "FAK (Homo sapiens)",
    "Endpoint Label": "DC50",
    "Display Unit": "nM",
    "Number": 9.57
  }
]

A: O=C1CCC(N2Cc3cc(Cn4ncc5c(-c6ncc(C(F)(F)F)cc6Cl)cc(N6CC(F)C6)nc54)cc(F)c3C2=O)C(=O)N1 (stereo not shown)
B: O=C1CC[C@H](N2Cc3cc(Cn4ncc5c(-c6ncc(Cl)cc6F)cc(N6CC(F)C6)nc54)ccc3C2=O)C(=O)N1
Rank A against B by their DC50 values and give the higher one. Which one? Tell me its label.
B

1: O=C1CCC(N2Cc3cc(Cn4ncc5c(-c6ncc(F)cc6Cl)c(F)c(N6CC(F)C6)nc54)ccc3C2=O)C(=O)N1 (stereo not shown)
2: O=C1CC[C@H](N2Cc3cc(Cn4ncc5c(-c6ncc(C(F)(F)F)cc6Cl)cc(N6CC[C@H](CCO)C6)nc54)ccc3C2=O)C(=O)N1
Select the item whose DC50 value is smaller, choosing between 1 and 2 . In your reply, give the label of the chosen option.
1
(1: 0.76 nM, 2: 51.9 nM)

I: CCOc1cnc(-c2c(Cl)c(N3CC(F)C3)nc3c2cnn3Cc2ccc3c(c2)CN([C@H]2CCC(=O)NC2=O)C3=O)c(C(F)(F)F)c1
II: N#Cc1ccc(-c2cc(N3CCC3)nc3c2cnn3Cc2cnc3c(c2)CN(C2CCC(=O)NC2=O)C3=O)c(Cl)c1 (stereo not shown)
III: O=C1CC[C@H](N2Cc3cc(Cn4ncc5c(-c6ncc(C(F)(F)F)cc6Cl)cc(NCCF)nc54)ccc3C2=O)C(=O)N1
IV: O=C1CCC(N2Cc3cc(Cn4ncc5c(-c6ncccc6Cl)c(Cl)c(N6CC(F)C6)nc54)ccc3C2=O)C(=O)N1 (stereo not shown)
List by increasing DC50. Response format: the labels, sorted as the prompt asks.
I, IV, III, II

====

# Target System: FAK (Homo sapiens, UniProt Q05397)
# Construct: homozygous knock-in of a HiBiT tag (Promega Corporation, Madison, WI) to the C-terminus of the FAK gene in its natural genomic locus; endogenous in cells; host or cells: JHH-4-FAK-HiBiT clone d01 (CRISPR-Cas9 knock-in at the endogenous locus)
# Experiment Notes: FAK-HiBiT Degradation Assay
# Type: cell-based
# Condition Label: lower limit of the four parameter fit (value A); Ymax derived using DMSO control; JHH-4-FAK-HiBiT cells, two hours
Endpoint Label: FAK HiBiT Ymin

[
  {
    "Compound": "O=C1CCC(N2Cc3cc(Cn4ncc5c(-c6ncc(C(F)(F)F)cc6Cl)cc(N6CC(F)C6)cc54)ccc3C2=O)C(=O)N1 (stereo not drawn)",
    "FAK HiBiT Ymin": 11.53
  }
]

A: Cc1cc(C(F)(F)F)cnc1-c1cc(N2CC[C@H](O)C2)nc2c1cnn2Cc1ccc2c(c1)CN([C@H]1CCC(=O)NC1=O)C2=O
B: O=C1CC[C@H](N2Cc3cc(Cn4ncc5c(-c6ncc(Cl)cc6F)cc(N6CC[C@H](O)C6)nc54)ccc3C2=O)C(=O)N1
C: Cc1cc(OC(F)F)cnc1-c1cc(N2CC(F)C2)nc2c1cnn2Cc1ccc2c(c1)CN([C@H]1CCC(=O)NC1=O)C2=O
D: O=C1CCC(N2Cc3cc(Cn4ncc5c(-c6ncc(C7CC7)cc6F)cc(N6CC(F)C6)nc54)ccc3C2=O)C(=O)N1 (stereo not drawn)
Descending sort on FAK HiBiT Ymin required. Dear reader, please state the labels in the requested order.
B, D, A, C

====

# System: CAL-51 cells
# Experiment Notes: CAL-51 Cell Proliferation Assay
# Type: cell-based
# Condition Label: minimal percent of DMSO control observed in the concentrations tested (Ymin-obs), 120 hours
Endpoint Label: CAL-51 Prolif Ymin
Give only the figure.

Completed entries (count: 4):
[
  {
    "Compound": "O=C1CCC(N2Cc3cc(Cn4ncc5c(-c6ncc(F)cc6Cl)cc(N6CC(F)C6)nc54)ccc3C2=O)C(=O)N1 (stereo not drawn)",
    "Target System": "CAL-51 cells",
    "CAL-51 Prolif Ymin": 26.66
  },
  {
    "Compound": "O=C1CC[C@H](N2Cc3cc(Cn4ncc5c(-c6ncc(Cl)cc6F)cc(N6CC(F)C6)nc54)ccc3C2=O)C(=O)N1",
    "Target System": "CAL-51 cells",
    "CAL-51 Prolif Ymin": 39.85
  },
  {
    "Compound": "CN1CCN(c2cc(-c3ncc(C(F)(F)F)cc3Cl)c3cnn(Cc4ccc5c(c4)CN([C@H]4CCC(=O)NC4=O)C5=O)c3n2)CC1",
    "Target System": "CAL-51 cells",
    "CAL-51 Prolif Ymin": 95.61
  },
  {
    "Compound": "Cc1nc2c(-c3ccc(C(F)(F)F)cc3Cl)cc(N3CC(F)C3)nc2n1Cc1ccc2c(c1)CN(C1CCC(=O)NC1=O)C2=O (stereo not drawn)",
    "Target System": "CAL-51 cells",
    "CAL-51 Prolif Ymin": 24.38
  }
]

Identify the measured CAL-51 Prolif Ymin of `O=C1CC[C@H](N2Cc3cc(Cn4ncc5c(-c6ncc(C(F)(F)F)cc6Cl)c(F)c(N6CC(F)C6)nc54)ccc3C2=O)C(=O)N1` for CAL-51 cells.
27.59

// repeat for CCOc1ccc(-c2cc(N3CC[C@](C)(O)C3)nc3c2cnn3Cc2ccc3c(c2)CN(C2CCC(=O)NC2=O)C3=O)c(Cl)c1 (stereo partly drawn) and report
45.73

Recorded values, source patent US20260078119A1.
